Reference for the values: patent US20260151494A1

Molecular target: T1, human apical domain of CD71 (human, UniProt P02786 189-383, limits assumed)
T1 construct: domain: apical domain
T1 sequence (P02786 189-383 limits assumed): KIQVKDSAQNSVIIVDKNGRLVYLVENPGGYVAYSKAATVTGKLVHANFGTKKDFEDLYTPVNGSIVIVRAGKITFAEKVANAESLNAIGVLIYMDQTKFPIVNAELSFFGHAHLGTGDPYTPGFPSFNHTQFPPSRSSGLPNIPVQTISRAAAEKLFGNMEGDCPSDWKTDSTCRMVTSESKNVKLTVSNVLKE
Assay: primary ELISA; signal over HSA control
Classify: Y when Apical domain:HSA is strictly less than 200 ratio; N when Apical domain:HSA is not.

Examples with answers:
{"Binder": "CD71-binding FN3 domain SEQ ID NO 395 (designed binder) MLPAPKNLVVSRVTEDSARLSWTAPDTAFDSFFIGYLEPQPPGEAIGLFVPGSERSYDLTGLKPGTEYNVTIQGVKGGFPSDPLSAFFTT", "Classification": "Y"}
{"Binder": "CD71-binding FN3 domain SEQ ID NO 397 (designed binder) MLPAPKNLVVSRVTEDSARLSWTAPDAAFDSFIILYGEAQYDGEAIVLTVPGSERSYDLTGLKPGTEYPVDIYGVKGGPYSWPLSAIFTT", "Classification": "Y"}
{"Binder": "CD71-binding FN3 domain SEQ ID NO 439 (designed binder) MLPAPKNLVVSRVTEDSARLSWTAPDAAFDSFFIGYLEPQPPGEAIHLFVPGSERSYDLTGLKPGTEYNVTIQGVKGGFPSVPLNAYFTT", "Classification": "N"}
{"Binder": "CD71-binding FN3 domain SEQ ID NO 436 (designed binder) MLPAPKNLVVSRVTEDSARLSWTAPDAAFDSFFIGYLEPQPPGEAIHLLVPGSERSYDLTGLKPGTEYNVTIQGVKGGFPSEPLWAKFTT", "Classification": "N"}
{"Binder": "CD71-binding FN3 domain SEQ ID NO 413 (designed binder) MLPAPKNLVVSRVTEDSARLSWTAPDAAFDSFFIGYLEPQPPGEAIYLRVPGSERSYDLTGLKPGTEYNVTIQGVKGGFPSAPLHAHFTT", "Classification": "N"}

Quick check: Apical domain:HSA of CD71-binding FN3 domain SEQ ID NO 406 (designed binder) MLPAPKNLVVSRVTEDSARLSWTAPDAAFDSFFIDYDESLDSGEAIVLTVPGSERSYDLTGLKPGTEYNVTIQGVKGGFPSSPLEAAFTT under 200 ratio?
N

Quick check: Apical domain:HSA of CD71-binding FN3 domain SEQ ID NO 407 (designed binder) MLPAPKNLVVSRVTEDSARLSWTAPDAAFDSFEIAYFETCRTGEAIVLTVPGSERSYDLTGLKPGTEYRVWIGGVKGGVWSRPLSAIFTT under 200 ratio?
Y

Quick check: Apical domain:HSA of CD71-binding FN3 domain SEQ ID NO 442 (designed binder) MLPAPKNLVVSRVTEDSARLSWTAPDAAFDSFEIWYAEWRQVGEAIVLTVPGSERSYDLTGLKPGTEYNVDIHGVKGGKVSWPLSAISTT under 200 ratio?
N

Quick check: Apical domain:HSA of CD71-binding FN3 domain SEQ ID NO 378 (designed binder) MLPAPKNLVVSRVTEDSARLSWTAPDAAFDSFFIGYLEPQPPGEAIDLWVPGSERSYDLTGLKPGTEYNVTIQGVKGGFPSTPLIATVTT under 200 ratio?
Y
